# System: NCI-H446
# Protocol text: Antiproliferative activity against human NCI-H446 cells assessed as inhibition of cell growth at 0.5 uM in hypoxia condition (200 uM CoCl2) and under irradiation at 8 Gy for 24 hrs and measured after 24 hrs by CCK8 assay (reference value: 68.77%)
# Assay type: functional
Recorded endpoint: inhibition (INH)
Respond with a number, then the unit of measure.

### Prompt Complete the entry with inhibition (INH) for COc1cc2c(Nc3ccc(C)c(Br)c3)ncnc2cc1OCCOCCNC(=O)Cn1cnc([N+](=O)[O-])n1
### Response 80.1%

### Prompt Complete the entry with inhibition (INH) for COc1cc2c(Nc3ccc(F)cc3)ncnc2cc1OCCOCCNC(=O)Cn1cnc([N+](=O)[O-])n1
### Response 80.58%

### Prompt Complete the entry with inhibition (INH) for COc1cc2c(Nc3ccc(Br)cc3F)ncnc2cc1OCCOCCOCCNC(=O)Cn1cnc([N+](=O)[O-])n1
### Response 84.92%

### Prompt Complete the entry with inhibition (INH) for COc1cc2c(Nc3ccc(Br)cc3F)ncnc2cc1OCCOCCNC(=O)Cn1cnc([N+](=O)[O-])n1
### Response 88.66%

---

# Experimental system: Vascular endothelial growth factor receptor 2 (Homo sapiens, UniProt P35968)
# Sequence (P35968 whole entry): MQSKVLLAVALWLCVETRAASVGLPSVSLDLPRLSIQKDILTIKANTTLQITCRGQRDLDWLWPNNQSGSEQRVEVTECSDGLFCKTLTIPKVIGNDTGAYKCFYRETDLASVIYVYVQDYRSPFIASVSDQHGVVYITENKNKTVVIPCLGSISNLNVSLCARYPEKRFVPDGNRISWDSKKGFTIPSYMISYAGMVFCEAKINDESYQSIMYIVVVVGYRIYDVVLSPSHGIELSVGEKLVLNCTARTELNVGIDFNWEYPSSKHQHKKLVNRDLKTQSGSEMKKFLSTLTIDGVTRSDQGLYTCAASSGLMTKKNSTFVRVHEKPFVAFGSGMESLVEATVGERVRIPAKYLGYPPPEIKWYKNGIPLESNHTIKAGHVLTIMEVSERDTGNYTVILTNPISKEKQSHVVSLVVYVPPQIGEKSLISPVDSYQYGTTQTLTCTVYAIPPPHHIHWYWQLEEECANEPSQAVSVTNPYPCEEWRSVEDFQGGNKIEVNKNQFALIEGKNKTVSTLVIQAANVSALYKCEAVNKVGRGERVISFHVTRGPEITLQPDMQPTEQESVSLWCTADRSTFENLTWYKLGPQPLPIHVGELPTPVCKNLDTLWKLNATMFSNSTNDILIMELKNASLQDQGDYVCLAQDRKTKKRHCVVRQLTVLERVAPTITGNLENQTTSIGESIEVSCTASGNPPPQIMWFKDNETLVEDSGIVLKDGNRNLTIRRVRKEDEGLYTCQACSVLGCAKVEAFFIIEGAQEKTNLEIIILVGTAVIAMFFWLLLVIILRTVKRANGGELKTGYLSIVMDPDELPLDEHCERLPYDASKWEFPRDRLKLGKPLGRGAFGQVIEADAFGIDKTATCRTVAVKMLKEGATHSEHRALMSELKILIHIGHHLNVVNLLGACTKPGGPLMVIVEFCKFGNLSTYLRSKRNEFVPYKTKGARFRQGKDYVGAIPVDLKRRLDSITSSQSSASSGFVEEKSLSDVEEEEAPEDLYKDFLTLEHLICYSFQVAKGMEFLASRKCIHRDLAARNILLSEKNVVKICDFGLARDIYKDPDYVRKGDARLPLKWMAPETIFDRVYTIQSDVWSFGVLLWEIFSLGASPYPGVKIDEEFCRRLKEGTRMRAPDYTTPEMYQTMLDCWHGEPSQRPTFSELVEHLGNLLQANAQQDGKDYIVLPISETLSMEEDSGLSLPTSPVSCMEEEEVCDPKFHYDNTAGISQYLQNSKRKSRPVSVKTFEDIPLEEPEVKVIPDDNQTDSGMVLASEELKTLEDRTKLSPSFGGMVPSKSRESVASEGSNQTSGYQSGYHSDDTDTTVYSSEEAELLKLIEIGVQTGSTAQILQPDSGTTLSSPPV
pIC50: −log10 of the molar value.
Categories are defined by ranges of pIC50, namely band A = under 6, band B = from 6 up to 7, band C = 7 and over

Use the examples below as a reference point.
| Mol smiles | Discrete label |
| --- | --- |
| COc1cc2c(Nc3ccc(F)cc3Cl)ncnc2cc1OCCNC(=O)Cn1cnc([N+](=O)[O-])n1 | band B |
| COc1cc2c(Nc3ccc(C)c(Br)c3)ncnc2cc1OCCOCCNC(=O)Cn1cnc([N+](=O)[O-])n1 | band B |
| COc1cc2c(Nc3ccc(F)cc3Cl)ncnc2cc1OCCOCCNC(=O)Cn1cnc([N+](=O)[O-])n1 | band A |
| COc1cc2c(Nc3ccc(F)cc3Cl)ncnc2cc1OCCOCCOCCNC(=O)Cn1cnc([N+](=O)[O-])n1 | band A |
| COc1cc2c(Nc3ccc(Br)cc3F)ncnc2cc1OCCOCCNC(=O)Cn1cnc([N+](=O)[O-])n1 | band C |
| COc1cc2c(Nc3ccc(Br)cc3F)ncnc2cc1OCC1CCN(C(=O)Cn2cncc2[N+](=O)[O-])CC1 | band C |
| COc1cc2c(Nc3ccc(Br)cc3F)ncnc2cc1OCCOCCOCCNC(=O)Cn1cnc([N+](=O)[O-])n1 | band B |

Now consider the entry below.
### Prompt Kindly identify the class of COc1cc2c(Nc3ccc(F)c(F)c3)ncnc2cc1OCCOCCOCCNC(=O)Cn1cnc([N+](=O)[O-])n1 .
### Response band A

---

# Protocol text: Cytotoxicity against human NCI-H446 cells assessed as inhibition of cell growth at 0.5 uM after 48 hrs under normoxic condition by CCk-8 assay relative to control
# Assay type: cell-based
Recorded endpoint: inhibition at 48 h, 0.5 µM (%)
Response body: numeric value in %, unit text excluded.

Example molecules with recorded inhibition at 48 h, 0.5 µM:
| Mol smiles | Experimental value |
| --- | --- |
| COc1cc2c(Nc3ccc(F)cc3Cl)ncnc2cc1OCCOCCNC(=O)Cn1cnc([N+](=O)[O-])n1 | 13.9 |
| COc1cc2c(Nc3ccc(Br)cc3F)ncnc2cc1OCCOCCNC(=O)Cn1cnc([N+](=O)[O-])n1 | 18.9 |

### Prompt Complete the entry with inhibition at 48 h, 0.5 µM for COc1cc2c(Nc3ccc(F)cc3)ncnc2cc1OCCOCCNC(=O)Cn1cnc([N+](=O)[O-])n1
### Response 11.1

### Prompt Complete the entry with inhibition at 48 h, 0.5 µM for COc1cc2c(Nc3ccc(C)c(Br)c3)ncnc2cc1OCCOCCNC(=O)Cn1cnc([N+](=O)[O-])n1
### Response 18.6
